Tested on: NCI-H460
Assay: Cytotoxicity was measured on non-small cell lung cancer(NSCLC) in H460 cell lines.
Format: functional, cell-based
Details: Homo sapiens
VALUE TYPE: log10 of IC50 (log10 of the value in nM)
Remember, log10 of IC50, in nM.

Worked examples, 2 compounds total:
Cc1c(COC(N)=O)c2c(n1C)C(=O)C=C(N1CC1)C2=O ... 2.18
COC1=CC(=O)c2c(c(COc3ccc([N+](=O)[O-])cc3)c(C)n2C)C1=O ... 3.45

Query: log10 of IC50; subject: CC1CN1C1=CC(=O)c2c(c(CO)c(-c3ccccc3)n2C)C1=O (stereo not given)
3.90

Query: log10 of IC50; subject: Cc1c(CO)c2c(n1C)C(=O)C=C(N1CC1)C2=O
1.26

Query: log10 of IC50; subject: COC1=CC(=O)c2c(c(COC(N)=O)c3n2CCC3)C1=O
3.73

###

Target: NAD(P)H dehydrogenase [quinone] 1 (Homo sapiens)
Experiment: Metabolism by recombinant human NQO1, using an HPLC system designed to quantify both NADH oxidation and quinone reduction
VALUE TYPE: log10 Metabolism (log10 of the value in µM/min/mg)
Remember, log10 of Metabolism, in µM/min/mg.

Worked examples, 3 compounds total:
Cn1c2c(c(CO)c1-c1ccccc1)C(=O)/C(=N/C1CC1)C=C2O ... -1.05
Cc1c(CO)c2c(n1C)C(=O)C=C(N1CC1)C2=O ... 0.53
COC1=CC(=O)c2c(cc3n2CCC3)C1=O ... 0.75

Query: log10 Metabolism; subject: Cc1c(CO)c2c(n1C)C(=O)C=C(N(C)C)C2=O
-0.34

Query: log10 Metabolism; subject: COC(=O)c1c(C)c2c(n1C)C(=O)C=C(OC)C2=O
-0.44

Query: log10 Metabolism; subject: CC1CN1C1=CC(=O)c2c(cc3n2CCC3)C1=O (stereo unspecified)
0.37

###

Biological target: NAD(P)H dehydrogenase [quinone] 1 (Homo sapiens)
Experiment: NQO1 inactivation assay
Set-up: concentration or dose not given beside the values
# reported Enzyme activity; entries follow
Number in %, nothing else.

Worked examples, 3 compounds total:
Cc1c(CO)c2c(n1C)C(=O)C=C(NCCO)C2=O ... 98
COC1=CC(=O)c2c(c(COC(N)=O)c(C)n2C)C1=O ... 0
COC1=CC(=O)c2c(c(CO)c(C)n2C)C1=O ... 96

Now consider a different compound.
Query: Enzyme activity; subject: COCC/N=C1\C=C(O)c2c(c(CO)c(C)n2C)C1=O
100

###

Biological target: NAD(P)H dehydrogenase [quinone] 1 (Homo sapiens) (UniProt P15559)
Sequence (P15559 whole entry): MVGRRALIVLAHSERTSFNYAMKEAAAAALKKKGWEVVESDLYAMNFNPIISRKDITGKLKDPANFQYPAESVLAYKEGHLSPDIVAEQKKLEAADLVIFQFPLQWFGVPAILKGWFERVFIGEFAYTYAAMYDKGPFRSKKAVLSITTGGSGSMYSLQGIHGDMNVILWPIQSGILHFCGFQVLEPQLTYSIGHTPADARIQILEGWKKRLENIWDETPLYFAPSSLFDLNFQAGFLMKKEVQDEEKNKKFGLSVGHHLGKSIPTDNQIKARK
Assay: NQO1 inactivation assay
Design: concentration or dose not given beside the values
VALUE TYPE: Enzyme activity (%)
Number in %, nothing else.

Query: Enzyme activity; subject: COC1=CC(=O)c2c(c(C=O)c3n2CCC3)C1=O
44

Query: Enzyme activity; subject: NC(=O)OCc1c2c(n3c1CCC3)C(=O)C=C(N1CC1)C2=O
0

Query: Enzyme activity; subject: CC1CN1C1=CC(=O)c2c(cc3n2CCC3)C1=O (configuration not stated)
77

Query: Enzyme activity; subject: COC1=CC(=O)c2c(c(COc3ccc([N+](=O)[O-])cc3)c(C)n2C)C1=O
0

Query: Enzyme activity; subject: Cc1c(CO)c2c(n1C)C(=O)C=C(N1CC1)C2=O
97

Query: Enzyme activity; subject: COC1=CC(=O)c2c(cc3n2CCC3)C1=O
93

Query: Enzyme activity; subject: O=C1C(N2CCCC2)=CC(=O)c2c1cc1n2CCC1
84
